# EXPERIMENT_DESCRIPTION: BET inhibitor-based combinations targeting novel dependencies in MECOM-rearranged (r) AML: AML-194 cell line (AID 2202237; further: nearly all actives have a fitted effect of over 40% in size)
# CONDITION_SET: AML-194 (MECOM-r AML) viability, CellTiter-Glo, 48 h; series mostly up to 46 µM
Inconclusive results are not listed. Calls of active or inactive are those of the source. The call rests on the fitted dose curve; in most records, active means well fitted inhibition curve with a large enough effect; inconclusive means small, poorly fitted or top-dose-only effect; inactive means flat fitted curve, though single readings scatter.
// classify into t (active), f (inactive)

Lookup: How did this test come out for `CC1=C(/C=C/C(C)=C/C=C/C(C)=C/C(=O)O)C(C)(C)CCC1` ?
Found: f

Lookup: How did this test come out for `CCCc1cc(C(N)=S)ccn1` ?
Found: f

Lookup: How did this test come out for `CN(C)CCCN1c2ccccc2CCc2ccc(Cl)cc21` ?
Found: f

Lookup: How did this test come out for `CCCCOc1ccc(C(=O)Nc2ccc(F)cc2F)cc1` ?
Found: f

Lookup: How did this test come out for `O=C1C[C@@H](c2ccc(O)cc2)Oc2cc(O)cc(O)c21` ?
Found: f

Lookup: How did this test come out for `Cn1c(=O)c2c(ncn2C)n(C)c1=O` ?
Found: f

Lookup: How did this test come out for `O=C(O)C(=O)Nc1cccc(-c2nn[nH]n2)c1` ?
Found: f

Lookup: How did this test come out for Clc1ccc(COC(Cn2ccnc2)c2ccc(Cl)cc2Cl)c(Cl)c1 (stereo not given) ?
Found: t

Lookup: How did this test come out for `CC[C@@H](C)[C@H](NC(=O)[C@H](CC1CCCCC1)NC(=O)c1ccno1)C(=O)N1CCC2(CCc3ccccc32)CC1` ?
Found: f

Lookup: How did this test come out for `Cc1cc(C2CCCCC2)n(O)c(=O)c1` ?
Found: t

Lookup: How did this test come out for C1CCC(C(CC2CCCCN2)C2CCCCC2)CC1 (stereo not given) ?
Found: t

Lookup: How did this test come out for `Cc1cc(Nc2nc(N[C@@H](C)c3ccc(F)cc3)c(C#N)cc2F)n[nH]1` ?
Found: t

Lookup: How did this test come out for `CC[C@]12C=CCN3CC[C@@]4(c5cc([C@@]6(C(=O)OC)C[C@H]7C[C@@H](C(C)(F)F)CN(Cc8c6[nH]c6ccccc86)C7)c(OC)cc5N(C)[C@H]4[C@@](O)(C(=O)OC)[C@@H]1OC(C)=O)[C@@H]32` ?
Found: t

Lookup: How did this test come out for COc1ccc(C2CC(c3ccccc3)=NN2c2ccc(S(N)(=O)=O)cc2)cc1 (stereo not given) ?
Found: f

Lookup: How did this test come out for `Nc1cc(C(Cl)=C(Cl)Cl)c(S(N)(=O)=O)cc1S(N)(=O)=O` ?
Found: f

###

# TARGET_OF_ASSAY: Cellular tumor antigen p53 (Homo sapiens) (UniProt P04637)
# Sequence (P04637 whole entry, looked up): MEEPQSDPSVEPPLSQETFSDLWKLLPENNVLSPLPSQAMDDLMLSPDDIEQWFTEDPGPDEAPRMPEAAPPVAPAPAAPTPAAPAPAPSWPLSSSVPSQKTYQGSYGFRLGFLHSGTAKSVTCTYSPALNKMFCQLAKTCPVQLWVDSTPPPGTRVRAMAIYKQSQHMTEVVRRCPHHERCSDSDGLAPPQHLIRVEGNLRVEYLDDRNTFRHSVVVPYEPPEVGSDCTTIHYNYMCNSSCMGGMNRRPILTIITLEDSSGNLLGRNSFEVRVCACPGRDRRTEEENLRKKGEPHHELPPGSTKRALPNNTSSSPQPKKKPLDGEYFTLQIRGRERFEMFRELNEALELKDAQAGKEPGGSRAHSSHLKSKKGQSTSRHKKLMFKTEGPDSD
# EXPERIMENT_DESCRIPTION: Primary qHTS for small molecule compounds that upregulate eGFP-tagged delta133p53alpha (in N-terminal) cells. (AID 2060322);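 further: cells pre-induced with doxycycline then dosed without doxycycline; 0% = DMSO vehicle and 100% = reference activator; nearly all actives have a fitted effect of over 75% in size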
# CONDITION_SET: NCI-H358 eGFP-delta133p53alpha fluorescence, 24 h; active compounds read high
Results filed as inconclusive are left out.
Would you kindly list activation for each of these compounds?
The figure you give is taken to be in %; do not add the unit.

Lookup: GET /values?readout=activation&item= FC(F)(F)C(Cl)Br (centres undefined)
Found: 8.37

Lookup: GET /values?readout=activation&item= CC1=CC(=O)CC(C)(C)C1/C=C/C(C)O[C@@H]1O[C@H](CO)[C@@H](O)[C@H](O)[C@H]1O[C@@H]1OC[C@](O)(CO)[C@H]1O (some centres undefined)
Found: -2.68

Lookup: GET /values?readout=activation&item= `Cc1c(C(C)C)c(=O)n(-c2ccccc2)n1C`
Found: -13.4

Lookup: GET /values?readout=activation&item= C=C1CCC2[C@](C)(CO)CCC[C@@]2(C)[C@@H]1CCC1=CCOC1=O (some centres undefined)
Found: -7.14

Lookup: GET /values?readout=activation&item= `O=C(O)CC/C=C\C[C@H]1CO[C@@H](c2ccccc2Cl)O[C@H]1c1ccccc1O`
Found: -9.67

Lookup: GET /values?readout=activation&item= `O=C1c2c(O)cccc2[C@@H]([C@@H]2O[C@H](CO)[C@@H](O)[C@H](O)[C@H]2O)c2cc(CO)cc(O)c21`
Found: -15.3

Lookup: GET /values?readout=activation&item= COc1cc(COC2OC(CO)C(O)C(O)C2O)cc(OC)c1O (centres undefined)
Found: -6.87

Lookup: GET /values?readout=activation&item= `Cc1cnc(NS(=O)(=O)c2ccc(N)cc2)nc1`
Found: 2.82

Lookup: GET /values?readout=activation&item= `O=C(O)c1cc(O[C@@H]2O[C@H](CO[C@@H]3OC[C@@H](O)[C@H](O)[C@H]3O)[C@@H](O)[C@H](O)[C@H]2O)c2ccccc2c1O`
Found: 9.92

Lookup: GET /values?readout=activation&item= Cc1cc(Cn2cnc3c2CC(C(=O)O)N(C(=O)C(c2ccccc2)c2ccccc2)C3)ccc1N(C)C (centres undefined)
Found: -7.64

Lookup: GET /values?readout=activation&item= `COc1ccc(CCn2nnnc2C2(c3ccc(C)cc3)CC2)cc1`
Found: -20.3

Lookup: GET /values?readout=activation&item= `Cc1cc(O)c(C(C)C)cc1O[C@@H]1O[C@H](CO)[C@@H](O)[C@H](O)[C@H]1O`
Found: -17.6

Lookup: GET /values?readout=activation&item= `O=C1C=CC(O)(/C=C/C(=O)OC[C@H]2O[C@@H](Oc3ccc(O)cc3)[C@H](O)[C@@H](O)[C@@H]2O)C=C1`
Found: 6.25

Lookup: GET /values?readout=activation&item= CC1OC(OC2CCC3(C)C(CCC4(C)C3CC=C3C5CC(C)(C)CCC5(C(=O)OC5OC(CO)C(O)C(O)C5O)CCC34C(=O)O)C2(C)C)C(O)C(O)C1O (centres undefined)
Found: 0.763

Lookup: GET /values?readout=activation&item= `O=C(NCc1ccccc1)c1ccc2c(=O)n(-c3cccc(C(F)(F)F)c3)c(=S)[nH]c2c1`
Found: -9.55

Lookup: GET /values?readout=activation&item= `Cc1nnsc1C(=O)Nc1ccc(-n2nc(C(F)(F)F)cc2C(F)(F)F)cc1`
Found: 1.43

Lookup: GET /values?readout=activation&item= `COC(=O)C1=CO[C@@H](O[C@@H]2O[C@H](CO)[C@@H](O)[C@H](O)[C@H]2O)[C@H]2[C@@H]1C=C[C@]21C=C([C@H](C)OC(=O)/C=C/c2ccc(O[C@@H]3O[C@H](CO)[C@@H](O)[C@H](O)[C@H]3O)cc2)C(=O)O1`
Found: -1.79

Lookup: GET /values?readout=activation&item= `C=C1[C@@H]2CC[C@@]3(C)[C@H](c4ccoc4)OC(=O)C[C@]13O[C@H]1CC(=O)C(C)(C)[C@H](CC(=O)OC)[C@]12C`
Found: -26.7

Lookup: GET /values?readout=activation&item= `C[C@@H]1C[C@H]2[C@@H]3C[C@H](F)C4=CC(=O)C(Cl)=C[C@]4(C)[C@@]3(F)[C@@H](O)C[C@]2(C)[C@@]1(O)C(=O)CO`
Found: -14.1

Lookup: GET /values?readout=activation&item= `O=S(=O)(N[C@H]1CCCC[C@@H]1N1CCOCC1)c1ccc(Cl)cc1`
Found: -16.3

Lookup: GET /values?readout=activation&item= CC1(C)C[C@@H]2[C@H](C1)[C@@]1(C)C[C@]13C(O)OC[C@]3(O)[C@H]2O (some centres undefined)
Found: 6.25

Lookup: GET /values?readout=activation&item= `C[C@@]12C[C@@]3(O)O[C@@H](O1)[C@]1(COC(=O)c4ccccc4)[C@@H]3C[C@@]12O[C@@H]1O[C@H](CO)[C@@H](O)[C@H](O)[C@@H]1O`
Found: 35.7

Lookup: GET /values?readout=activation&item= `COc1c(CCC(=O)O)cccc1O[C@@H]1O[C@H](CO)[C@@H](O)[C@H](O)[C@H]1O`
Found: -4.58

Lookup: GET /values?readout=activation&item= CCCSc1nc(NC2CC2c2ccc(F)c(F)c2)c2nnn(C3CC(OCCO)C(O)C3O)c2n1 (centres undefined)
Found: 16.7

Lookup: GET /values?readout=activation&item= `OCC1=CC[C@@H]2C=CO[C@@H](O[C@@H]3O[C@H](CO)[C@@H](O)[C@H](O)[C@H]3O)[C@H]12`
Found: -9.92

Lookup: GET /values?readout=activation&item= CCC(C(=O)O)c1ccc(N2Cc3ccccc3C2=O)cc1 (centres undefined)
Found: 18.6

Lookup: GET /values?readout=activation&item= `CCCOC(=O)c1ccc(O)cc1`
Found: -10

Lookup: GET /values?readout=activation&item= C/C=C/CCC1Cc2cc(O)c(CCCC)c(O)c2C(=O)O1 (centres undefined)
Found: -16

Lookup: GET /values?readout=activation&item= `COc1cc(O)c(C(=O)O)c(CCc2ccccc2)c1`
Found: -15.3

Lookup: GET /values?readout=activation&item= COc1c2c(c(C)c3c1C(=O)OC3)O[C@@]1(C)CC(O)C(C(C)(C)O)[C@](C)(CCC(=O)O)[C@H]1C2 (some centres undefined)
Found: -9.16

Lookup: GET /values?readout=activation&item= CC(C/C=C/C(C)(C)O)C1CCC(C)(O)C(O)C1 (centres undefined)
Found: -11.5

Lookup: GET /values?readout=activation&item= CC(O)/C=C/C1(O)C2(C)COC1(C)CC(O)C2 (centres undefined)
Found: 9.82

Lookup: GET /values?readout=activation&item= O=C(O)c1ccnc2cc(C(OCC3CCC(F)(F)CC3)c3ccccc3Cl)[nH]c12 (centres undefined)
Found: 5.67

Lookup: GET /values?readout=activation&item= C/C=C(\C)C(=O)OCC1OC(OCC2OC(OC3(CO)OC(CO)C(O)C3O)C(O)C(O)C2O)C(O)C(O)C1O (centres undefined)
Found: -9.16

// provenance: PubChem BioAssay (NCATS)
